Biological target: DNA topoisomerase 1 (Homo sapiens)
Sequence (whole entry): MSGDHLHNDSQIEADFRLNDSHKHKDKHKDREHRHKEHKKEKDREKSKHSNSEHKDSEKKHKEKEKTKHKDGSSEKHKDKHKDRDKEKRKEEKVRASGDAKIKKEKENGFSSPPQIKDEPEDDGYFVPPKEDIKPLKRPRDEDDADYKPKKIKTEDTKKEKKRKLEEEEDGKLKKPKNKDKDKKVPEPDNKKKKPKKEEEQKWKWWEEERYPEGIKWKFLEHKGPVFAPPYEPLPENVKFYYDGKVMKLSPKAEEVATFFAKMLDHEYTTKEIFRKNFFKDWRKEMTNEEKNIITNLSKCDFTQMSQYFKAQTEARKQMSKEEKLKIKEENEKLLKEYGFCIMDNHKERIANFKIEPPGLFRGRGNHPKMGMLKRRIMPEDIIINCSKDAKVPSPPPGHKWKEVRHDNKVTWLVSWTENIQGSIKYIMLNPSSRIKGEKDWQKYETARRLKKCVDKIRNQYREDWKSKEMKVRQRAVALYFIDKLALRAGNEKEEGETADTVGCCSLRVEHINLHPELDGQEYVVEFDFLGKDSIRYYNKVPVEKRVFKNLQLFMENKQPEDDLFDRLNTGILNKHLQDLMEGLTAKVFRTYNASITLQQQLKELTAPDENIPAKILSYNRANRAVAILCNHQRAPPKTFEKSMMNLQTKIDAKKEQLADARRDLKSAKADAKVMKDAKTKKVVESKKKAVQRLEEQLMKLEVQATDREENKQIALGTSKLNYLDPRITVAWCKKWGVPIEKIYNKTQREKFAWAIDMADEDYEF
Assay: Inhibition of recombinant human topoisomerase 1-mediated DNA relaxation expressed in Saccharomyces cerevisiae TopI null strain RS190 at 80 uM using negatively supercoiled pUC18 as substrate pretreated with enzyme for 15 mins followed by substrate addition measured after 15 secs by agarose gel electrophoresis
endpoint_name: inhibition (%)
Answer format: numeric, % implied, no suffix.

test_smiles: O=P(c1ccccc1)(c1ccccc1)c1cccc2c(-c3ccccc3)cc(-c3cccc4ccccc34)nc12
measured_value: 89

test_smiles: c1ccc([C@H]2C[C@@H](c3ccccc3)Nc3c2cccc3P(c2ccccc2)c2ccccc2)cc1
measured_value: 85

test_smiles: O=P(c1ccccc1)(c1ccccc1)c1cccc2c1N[C@H](c1ccccn1)C[C@@H]2c1ccccc1
measured_value: 92

test_smiles: Fc1ccc([C@H]2C[C@@H](c3ccc(F)cc3)Nc3c2cccc3P(=S)(c2ccccc2)c2ccccc2)cc1
measured_value: 85

test_smiles: Fc1ccc([C@@H]2C[C@H](c3ccccc3)c3cccc(P(=S)(c4ccccc4)c4ccccc4)c3N2)cc1
measured_value: 41

test_smiles: FC(F)(F)c1ccc([C@@H]2C[C@H](c3ccccc3)c3cccc(P(c4ccccc4)c4ccccc4)c3N2)cc1
measured_value: 61

test_smiles: COc1ccccc1-c1cc(-c2ccccc2)c2cccc(P(=O)(c3ccccc3)c3ccccc3)c2n1
measured_value: 90

test_smiles: O=P(c1ccccc1)(c1ccccc1)c1cccc2c1N[C@H](c1ccc(C(F)(F)F)cc1)C[C@@H]2c1ccccc1
measured_value: 61

Please turn your attention to the following entry.
Data request: Reported inhibition for O=P(c1ccccc1)(c1ccccc1)c1cccc2c1N[C@H](c1cccc3ccccc13)C[C@@H]2c1ccccc1 : what is it?
Data returned: 63

* * *

biological target: DNA topoisomerase 1 (Homo sapiens); assay: Inhibition of recombinant human topoisomerase 1-mediated DNA relaxation expressed in Saccharomyces cerevisiae TopI null strain RS190 at 80 uM using negatively supercoiled pUC18 as substrate pretreated with enzyme for 15 mins followed by substrate addition measured after 15 secs by agarose gel electrophoresis
Recorded inhibition for the following molecules
Answer format: numeric, % implied, no suffix.

Worked set:
test_smiles: S=P(c1ccccc1)(c1ccccc1)c1cccc2c1N[C@H](c1ccc3ccccc3c1)C[C@@H]2c1ccccc1
inhibition / %: 76
--
test_smiles: FC(F)(F)c1ccc([C@@H]2C[C@H](c3ccccc3)c3cccc(P(=S)(c4ccccc4)c4ccccc4)c3N2)cc1
inhibition / %: 20

Please turn your attention to the following entry.
Data request: Reported inhibition for O=P(c1ccccc1)(c1ccccc1)c1cccc2c(-c3ccccc3)cc(-c3ccc(F)cc3)nc12 : what is it?
Data returned: 28
